- Organism: Homo sapiens
- Protocol Details: Selectivity index, ratio IC50 for recombinant human MAO-B to IC50 for recombinant human MAO-A
Classification field: enter YES for Ratio IC50 values not below 5, NO for values below it.

- Compound: "Clc1c2ccccc2nc2ccccc12"
  Answer Label: "YES"
- Compound: "O=C1c2ccccc2C(=O)c2c(O)ccc(O)c21 [QUINIZARIN]"
  Answer Label: "YES"
- Compound: "O=C1c2cccc(O)c2C(=O)c2c(O)cccc21 [DANTHRON]"
  Answer Label: "YES"
- Compound: "O=C1c2ccccc2C(=O)c2cnccc21"
  Answer Label: "NO"
- Compound: "Nc1ccc2c(c1N)C(=O)c1ccccc1C2=O"
  Answer Label: "NO"

Origin of values: ChEMBL document CHEMBL5143549
